Tested on: HOP-92 NSCLC
Assay: NCI-60 one-dose screen, 48 h
Settings: 10 µM unless noted
This is part of a sample that, as a whole, favours compounds with a hit. Of some 83,000 tested, about 20% had one in any assay. Active and inactive are the calls of the source. The calls were made as follows: active = growth percent below 10; inactive = the rest.
Return exactly one item of 1 (yes) = active, 0 (no) = inactive

// query Outcome? `Cc1ccc(CNc2ccc(Cl)cc2NCc2ccc(C)c(O)c2)cc1O`
// result 1 (yes)

// query Outcome? N#CC1=C(N)Oc2c(sc3c(F)cccc23)C1c1ccc(F)cc1 (stereo unspecified)
// result 0 (no)

// query Outcome? `Cc1nc2sc(C(=O)Nc3ccccc3)c(N)c2cc1C(=O)c1ccccc1`
// result 0 (no)

// query Outcome? `CC/C(=C(/c1ccc(Cl)cc1)c1ccc(OCCN2CCCC2)cc1)c1ccc(OC)cc1`
// result 0 (no)

// query Outcome? `CCSc1nc(NC)c2cc(-c3ccc(C(F)(F)F)cc3)ccc2n1`
// result 0 (no)

// query Outcome? `C=CCc1c2c(c(OC)c3ccoc13)C(=O)/C(=C/c1ccccc1OC)O2`
// result 0 (no)

// query Outcome? `Cc1c(-n2nnc(-c3nc4ccccc4s3)c2N)c(=O)n(-c2ccccc2)n1C`
// result 0 (no)

// query Outcome? `CCCCCCCCCCCCCCCCCCOc1ccccc1CC(=O)NCC[N+]1(C)CCCC1`
// result 0 (no)

// query Outcome? `N#C/C(=C/c1ccc([N+](=O)[O-])cc1)n1nnc2cc(F)c(F)cc21`
// result 0 (no)

// query Outcome? CN(C)CCCC1(c2ccc(F)cc2)OCc2cc(-c3cncc4ccccc34)ccc21 (stereo unspecified)
// result 0 (no)

// query Outcome? `O=C1C(Cl)=C(Nc2ccc(O)cc2)C(=O)N1Cc1ccc(Cl)cc1`
// result 0 (no)

* * *

Test system: BT-549 breast
Assay: NCI-60 one-dose screen, 48 h
Conditions: 10 µM unless noted
Compounds without any hit were thinned out: in the full panel of roughly 83,000, 20% have a hit. Calls of active or inactive are those of the source. How the source made its calls: active means growth percent below 10; inactive means the rest.
Return exactly one item of active, inactive

// query Outcome? `CNC(=O)c1c(NC(=O)c2ccc(C(F)(F)F)cc2)sc2c1CCC(=O)C2`
// result active

// query Outcome? `COc1ccccc1Nc1nc2c(s1)C1=CC[C@H]3[C@@H]4CC[C@H]([C@H](C)CCCC(C)C)[C@@]4(C)CC[C@@H]3[C@@]1(C)CC2`
// result inactive

// query Outcome? `O=C1NC(=O)c2c1c1c3ccccc3ccc1c1[nH]c3ccc(Br)cc3c21`
// result inactive

// query Outcome? COC1C[C@H](O[C@@H]2C[C@H](O[C@@H]3C[C@H](O[C@@H]4C(=O)c5c(cc6cc(O[C@H]7C[C@@H](O[C@H]8C[C@@H](O)[C@H](O)C(C)O8)[C@H](O)C(C)O7)c(C)c(O)c6c5O)C[C@H]4C(OC)C(=O)[C@@H](O)[C@@H](C)O)OC(C)[C@H]3O)OC(C)[C@@H]2O)OC(C)[C@@H]1O (stereo not given in full)
// result active

// query Outcome? CC(O)c1cnc(/C=C2\SC(=S)N(Cc3ccccc3)C2=O)s1 (stereo not given)
// result inactive

// query Outcome? `COc1ccc2[nH]cc(-c3nc(-c4cn(C)c5c(Cl)nccc45)cs3)c2c1`
// result inactive

// query Outcome? `CN(C)CCNC(=O)c1cccc(-c2cnc3ccc(-c4ccc5c(c4)OCO5)nn23)c1`
// result inactive

// query Outcome? CCCCCCC1(C)NCCO1 (stereo not given)
// result inactive

// query Outcome? `O=C(CCc1nnc(Cn2cnc3nc[nH]c3c2=O)o1)c1nc2ncccc2[nH]1`
// result inactive

// query Outcome? `CC(=O)Nc1nc2ccc(NS(=O)(=O)c3cccc4c(N(C)C)cccc34)cc2[nH]1`
// result inactive

// query Outcome? `O=C1Nc2ccccc2[C@]12CC(c1ccccc1)=NN2`
// result inactive

// query Outcome? CC1=C(CCC(C)N(C)Cc2ccc(OCCCN3CCCC3)cc2)C(C)(C)CCC1 (stereo not given)
// result inactive

// query Outcome? `Cn1cc(-c2nonc2-c2c[nH]c3ccc(Br)cc23)c2cc(Br)ccc21`
// result inactive

// query Outcome? `Cc1ccc(Sc2nnc(/N=C3\C(=O)Nc4ccccc43)s2)cc1`
// result inactive

// query Outcome? CCCCCCCCCCCCCCCC(N)c1ccccc1 (stereo not given)
// result inactive

* * *

Could you please report measured growth for the items listed next?
Tested on: HOP-62 NSCLC
Experiment: NCI-60 one-dose screen, 48 h (100 = growth as untreated, 0 = no growth, -100 = all killed)
Settings: 10 µM unless noted
The panel holds about 83,000 compounds, 20% with a hit somewhere; the sample as a whole holds those more often.
Output spec: scalar in %, unitless text.

// query # lookup: growth of `OB(O)c1cccc(-c2nc3ccc4[nH]ncc4c3c3c2CCCC3)c1`
// result 42.3

// query # lookup: growth of `CC(C)N1CCN(Cc2ccc3c(NNC(=O)c4ccccc4)nc4cc(F)ccc4n23)CC1`
// result 24.9

// query # lookup: growth of CN(C)CCCC1(c2ccc(F)cc2)OCc2cc(-c3cncc4ccccc34)ccc21 (stereo not given)
// result 65

// query # lookup: growth of `O=C(Cc1ccccc1)Nc1nc(O)c(/C=C2\C(=O)C=Cc3ccccc32)s1`
// result 107

// query # lookup: growth of `CC1=NN(c2nc(SCC(=O)Nc3nc4ccc(C)cc4s3)nc(-c3ccccc3)c2C#N)C(=O)C1`
// result 86.4

* * *

Test system: NCI-H226 lung
Assay: NCI-60 one-dose screen, 48 h (100 = growth as untreated, 0 = no growth, -100 = all killed)
Conditions: 10 µM unless noted
Compounds without any hit were thinned out: in the full panel of roughly 83,000, 20% have a hit.
// map growth onto a label; ranges low end (below 70%), middle (70% to below 90%), high end (90% or more)

// query Input `CN[C@]12CC3(C=CC(=O)C=C3)O[C@@]1(Cc1ccc(OC)cc1)N(C)C(=O)N2` ; output its category
// result low end

// query Input `COc1ccc(-c2nc(/C=C3\SC(=NCc4ccccc4)NC3=O)c3ccccn23)cc1` ; output its category
// result low end

// query Input O=C(c1ccccc1)C1C(=O)N2C(=S)N(c3ccccc3)C(=O)C2C1c1ccc(Cl)cc1 (stereo unspecified) ; output its category
// result middle

// query Input `Cn1c(=O)c2[nH]c(N/N=C/c3ccccc3Br)nc2n(C)c1=O` ; output its category
// result high end

// query Input `Cc1nc(N2CCOCC2)sc1S(N)(=O)=O` ; output its category
// result middle

// query Input `Cc1c(-c2nc3ccc(F)cc3c(=O)[nH]2)c2ccccc2n1C` ; output its category
// result low end

// query Input `O=Cc1ccc([N+](=O)[O-])s1` ; output its category
// result high end

// query Input `O=c1oc2ccc([N+](=O)[O-])cc2cc1Br` ; output its category
// result high end

// query Input `CCOC(=O)C(=Cc1cccc(Cl)c1)C(=O)OCC` ; output its category
// result low end

// query Input `O=C(Nc1ncc(Cc2ccc(Cl)c(C(F)(F)F)c2)s1)c1ccc2nnsc2c1` ; output its category
// result low end

// query Input `Clc1ccc(Nc2nnc(COc3ccccc3)c3ccccc23)cc1` ; output its category
// result low end

* * *

Could you please report measured growth for the items listed next?
Tested on: HCT-116 colon
Test: NCI-60 one-dose screen, 48 h (100 = growth as untreated, 0 = no growth, -100 = all killed)
Settings: 10 µM unless noted
About 83,000 compounds went through this panel and 20% of them were active in at least one assay; those are over-represented in the sample as a whole.
Output spec: scalar in %, unitless text.

// query Request body: readout growth, system HCT-116 colon, query `COC(=O)[C@]1(C)CCC[C@]2(C)[C@H]3C[C@H]4C(C(C)C)=C[C@]3(CC[C@H]21)[C@H]1[C@@H]4[C@@H](OCCC#N)CC[C@@H]1OCCC#N` . Return the value.
// result 15.4

// query Request body: readout growth, system HCT-116 colon, query `O=CC1(C2(C=O)c3ccccc3-c3ccccc32)c2ccccc2-c2ccccc21` . Return the value.
// result -60.6

// query Request body: readout growth, system HCT-116 colon, query `CC(C)(C)n1cc(-c2ccnc(NCCNS(=O)(=O)c3cccc4ccccc34)c2)c(-c2cccc(F)c2)n1` . Return the value.
// result -87.2

// query Request body: readout growth, system HCT-116 colon, query `CCCCNc1ccc(C#N)c(OCCN(CC)CC)c1` . Return the value.
// result 104

// query Request body: readout growth, system HCT-116 colon, query `Clc1ccc(Sc2cnc(-c3ccccc3)o2)cc1` . Return the value.
// result 104

// query Request body: readout growth, system HCT-116 colon, query `Clc1ccc(CNc2c3ccccc3nc3ccccc23)cc1` . Return the value.
// result 15.7
